Biological target: aconitase (Saccharomyces cerevisiae)
Construct: endogenous in cells; host or cells: Saccharomyces cerevisiae strain BY4741
Sequence (P19414 17-778): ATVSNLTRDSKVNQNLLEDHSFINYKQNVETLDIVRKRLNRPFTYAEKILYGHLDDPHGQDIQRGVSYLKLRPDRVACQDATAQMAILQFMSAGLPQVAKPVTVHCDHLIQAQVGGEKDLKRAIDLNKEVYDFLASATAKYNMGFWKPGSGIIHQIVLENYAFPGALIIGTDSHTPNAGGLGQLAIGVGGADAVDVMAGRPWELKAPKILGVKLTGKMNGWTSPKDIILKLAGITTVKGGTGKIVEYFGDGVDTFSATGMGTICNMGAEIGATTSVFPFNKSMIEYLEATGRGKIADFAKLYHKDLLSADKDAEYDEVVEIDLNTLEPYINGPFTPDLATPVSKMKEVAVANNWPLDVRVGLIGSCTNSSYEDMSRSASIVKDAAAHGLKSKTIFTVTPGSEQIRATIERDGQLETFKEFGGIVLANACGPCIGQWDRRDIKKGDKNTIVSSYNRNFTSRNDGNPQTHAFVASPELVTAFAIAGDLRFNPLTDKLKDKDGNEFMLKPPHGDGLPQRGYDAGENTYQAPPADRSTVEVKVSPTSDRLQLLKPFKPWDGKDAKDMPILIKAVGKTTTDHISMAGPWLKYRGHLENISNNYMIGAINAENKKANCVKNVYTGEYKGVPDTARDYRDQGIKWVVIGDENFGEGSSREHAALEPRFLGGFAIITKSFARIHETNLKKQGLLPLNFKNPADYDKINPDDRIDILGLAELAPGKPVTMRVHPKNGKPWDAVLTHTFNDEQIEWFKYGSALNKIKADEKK
Test: Aconitase activity in lysates of treated Saccharomyces cerevisiae BY4741 cultures (Bioxytech Aconitase-340 kit)
Format: cell-based
Settings: 50 ppm test material, S. cerevisiae BY4741 in YPD, incubated overnight, cell lysate; negative activity reported as 0
quantity_name: Aconitase Activity, % of Untreated Control (%)
Respond with the bare value in %.

| compound | quantitative_readout |
| --- | --- |
| O=S(=O)([O-])[O-].[Zn+2] [Zinc Sulfate] | 110 |

Sure, the documented Aconitase Activity, % of Untreated Control for Oc1cccc2cccnc12 [8-Hydroxyquinoline] is 15

Field Aconitase Activity, % of Untreated Control (entry CCCCCCCCOc1cccc(=O)n1O.NCCO ) reads 0

Aconitase Activity, % of Untreated Control measured on Cc1cc(CC(C)CC(C)(C)C)n(O)c(=O)c1.NCCO (stereo not drawn) = 0

Per the records, this compound ( c1cnc2c(c1)ccc1cccnc12 ) has Aconitase Activity, % of Untreated Control equal to 2

GET /value?item= O=C(O)CN(CCN(CC(=O)O)CC(=O)O)CC(=O)O &field=Aconitase Activity, % of Untreated Control returns 36
